Source listed as paper PMC5457145.

- Measured on: T1, His6Sumo-tagged TPR2 TPD (rice, UniProt Q5NBT9 1-209)
- T1 sequence (looked up): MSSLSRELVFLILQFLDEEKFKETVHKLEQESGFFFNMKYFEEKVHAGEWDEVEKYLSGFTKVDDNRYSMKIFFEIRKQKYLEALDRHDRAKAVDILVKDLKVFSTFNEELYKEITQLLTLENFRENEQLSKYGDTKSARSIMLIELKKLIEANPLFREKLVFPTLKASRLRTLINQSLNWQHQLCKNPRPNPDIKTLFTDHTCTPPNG
- Protocol notes: AlphaScreen or HTRF
Property name: pIC50
Scale explanation: pIC50 corresponds to minus log10 of a concentration expressed in moles per litre.

Task: Suppose we examine the binder DNLIYADLNLQ (peptide, UniProt Q2RBP2 794-804, looked up) [D53 EAR-2 peptide L799A] ; what pIC50 value has been reported?
Result: 4.84
